Every entry's value here was drawn from PubChem BioAssay (NCI).

# System: SNB-75 CNS
# assay overview: NCI tumour cell line growth inhibition, 48 h
Attribute: TGI
recorded metric: TGI

N#Cc1c2ccccc2c2nnc3cc(Cl)c(Cl)cc3n12 ... > 100 µM
COCOc1cc(OC)ccc1C=O ... > 100 µM
CCCCCCCCCCCCCC(=O)OCC1OC(OC)C(NC(=O)N(CCCl)N=O)C(O)C1O (centres undefined) ... 73.5 µM
CC(=O)O[C@H]1CC[C@@]2(C)C(=CC[C@@H]3C2CC[C@]2(C)Nc4oncc4CC32)C1 (some centres undefined) ... > 100 µM

* * *

Attribute: TGI
# System: 786-0 renal
# assay overview: NCI tumour cell line growth inhibition, 48 h
recorded metric: TGI (µM)

CC(C)(C)NNc1c([N+](=O)[O-])cnn(-c2ccccc2)c1=O ... 13.4
Cc1ccccc1NC(=O)NC(CC(N)=O)c1ccc2c(c1)nc(-c1cccc(Oc3ccc(C(C)(C)C)cc3)c1)n2CCCN1CCCCC1C (centres undefined) ... 8.66
